B1: MTMR15 (parent)
chain: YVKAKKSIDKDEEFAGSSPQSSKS

variants of: B1; test: protein stability index of a GFP-peptide fusion (GPS, HEK-293T) (PSI 1-6); higher = more stable; conditions: c terminus: a fixed tail appended;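 further: lentivirally expressed fusions sorted by FACS into six bins by GFP to DsRed ratio, PSI derived from sequencing read proportions per bin multiplied by bin number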

{"columns": ["sequenceChange", "protein stability index"],
 "data": [
  ["K10T", 3.28],
  ["E13V", 2.31],
  ["D11Q", 2.94],
  ["S18H", 2.68],
  ["I8L", 3.07],
  ["E13P", 2.81],
  ["D11V", 2.72],
  ["Q20F", 2],
  ["E13I", 2.05],
  ["Q20I", 2.51],
  ["D9M", 3.01],
  ["K23C", 3.5],
  ["G16L", 2.85],
  ["P19G", 3.43],
  ["A4G", 3.42],
  ["K6E", 3.95],
  ["Q20G", 3.27],
  ["K3L", 3.05],
  ["E12Y", 1.93],
  ["S17H", 3.07],
  ["K6M", 3.16],
  ["V2D", 5.5],
  ["F14M", 3.12],
  ["K10M", 3.36],
  ["K23A", 3.44],
  ["P19K", 2.63],
  ["K23Q", 3.32],
  ["S22N", 2.83],
  ["K3D", 3.96],
  ["S7E", 3.58],
  ["K5M", 2.6],
  ["V2E", 5.56],
  ["S24Q", 3],
  ["D11W", 2.31],
  ["D11E", 2.85],
  ["K5L", 2.15],
  ["V2S", 5.38],
  ["S24P", 3.02],
  ["P19H", 3.25],
  ["S17T", 3.29],
  ["Y1P", 5.19],
  ["V2C", 4.52],
  ["E12F", 2.37],
  ["S24W", 3.03],
  ["F14T", 3.55],
  ["G16C", 3.22]
]}
